The values you see were collected from ChEMBL document CHEMBL3994607.

system: MCF7; assay: Cytotoxicity against human MCF7 cells assessed as decrease in cell proliferation after 48 hrs by MTT colorimetric assay; type: functional, cell-based; settings: Homo sapiens, MCF7, 48 h
Each entry below carries its recorded IC50.

Use the examples below as a reference point.
Structure Smiles	Measure	Value Observed
C[C@@H](CC[C@H]1O[C@H]2C[C@H]3[C@@H]4CC[C@@H]5C[C@@H](OCc6ccccc6)CC[C@]5(C)[C@H]4CC[C@]3(C)[C@H]2[C@@H]1C)CN1CCN(C)CC1	IC50	> 100 µM
C[C@@H](CC[C@H]1O[C@H]2C[C@H]3[C@@H]4CC[C@@H]5C[C@@H](OCc6ccccc6)CC[C@]5(C)[C@H]4CC[C@]3(C)[C@H]2[C@@H]1C)CN1CCNCC1	IC50	> 100 µM

Attention now shifts to the item below.
Req: What does the record list as IC50 for COc1ccc(CO[C@H]2CC[C@@]3(C)[C@H](CC[C@@H]4[C@@H]3CC[C@]3(C)[C@H]5[C@H](C)[C@@H](CC[C@H](C)CN(C)C)O[C@H]5C[C@@H]43)C2)cc1 ?
Resp: > 100 µM
